system: HIV-1 strains geno-phenotypically resistant to EFV; assay: p24 production susceptibility test, Table 7, MT-2 cells; type: cell-based; conditions: Human immunodeficiency virus 1, MT2, MT-2; Gen. Y181C; read-out: E.C.50 HCQ
pEC50: −log10 of the molar value.
measurement label: pEC50

[
  {
    "compound": "CCN(CCO)CCCC(C)Nc1ccnc2cc(Cl)ccc12 (stereo not shown) [HCQ, hydroxychloroquine]",
    "observed": 5.82
  }
]

* * *

system: HIV-1 clinical isolated, characterised by mutations in the RT gene inducing geno-phenotypic resistance to ABC; experiment: p24 production susceptibility test (ACTG protocol), Table 5; assay type: cell-based; conditions: Human immunodeficiency virus 1, PBMC, Gen. M41L D67N M184V L210W T215Y, read-out: E.C.50 HCQ

[
  {
    "compound": "CCN(CCO)CCCC(C)Nc1ccnc2cc(Cl)ccc12 (stereo not shown) [HCQ, hydroxychloroquine]",
    "EC50 (nM)": 1800
  }
]

Entry source: patent US20040006103A1
